# TARGET OF ASSAY: Lysine-specific demethylase 4A (Homo sapiens) (UniProt O75164)
# Sequence (O75164 whole entry, looked up, the tested form may be a part): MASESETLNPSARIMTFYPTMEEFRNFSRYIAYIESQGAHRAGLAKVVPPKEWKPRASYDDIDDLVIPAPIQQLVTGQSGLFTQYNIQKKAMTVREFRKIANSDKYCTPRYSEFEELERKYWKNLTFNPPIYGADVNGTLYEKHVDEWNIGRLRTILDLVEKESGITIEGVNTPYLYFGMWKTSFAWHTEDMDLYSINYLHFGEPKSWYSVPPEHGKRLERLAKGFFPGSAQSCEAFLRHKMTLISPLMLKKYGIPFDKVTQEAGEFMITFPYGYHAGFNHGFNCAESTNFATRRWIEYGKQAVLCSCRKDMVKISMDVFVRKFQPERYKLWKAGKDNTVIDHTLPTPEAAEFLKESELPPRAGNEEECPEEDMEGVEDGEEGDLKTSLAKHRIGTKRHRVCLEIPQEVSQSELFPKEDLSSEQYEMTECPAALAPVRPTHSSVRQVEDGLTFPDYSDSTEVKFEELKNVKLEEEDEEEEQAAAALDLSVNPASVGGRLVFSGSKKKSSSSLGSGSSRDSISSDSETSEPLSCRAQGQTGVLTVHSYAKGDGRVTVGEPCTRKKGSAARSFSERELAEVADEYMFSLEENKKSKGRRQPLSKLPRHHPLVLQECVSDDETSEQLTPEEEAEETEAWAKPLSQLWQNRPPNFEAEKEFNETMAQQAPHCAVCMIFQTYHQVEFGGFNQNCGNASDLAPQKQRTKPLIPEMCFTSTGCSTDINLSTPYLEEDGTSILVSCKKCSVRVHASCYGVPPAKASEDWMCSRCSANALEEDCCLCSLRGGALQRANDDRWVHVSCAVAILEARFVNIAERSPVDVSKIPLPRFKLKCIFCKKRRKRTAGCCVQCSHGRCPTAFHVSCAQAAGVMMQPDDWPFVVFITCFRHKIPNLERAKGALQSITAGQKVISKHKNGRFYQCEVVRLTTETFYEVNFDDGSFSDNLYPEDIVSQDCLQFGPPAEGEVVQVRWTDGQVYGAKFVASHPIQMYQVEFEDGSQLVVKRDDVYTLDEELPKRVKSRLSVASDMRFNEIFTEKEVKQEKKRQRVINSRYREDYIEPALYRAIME
# TEST SUMMARY: qHTS Assay for Inhibitors of JMJD2A-Tudor Domain; further: nearly all actives have a fitted effect of over 50% in size
# EXPERIMENTAL CONTEXT: AlphaScreen JMJD2A-Tudor / H3K4me3 peptide binding; series mostly up to 114 µM
Out of some 390,000 compounds screened, about 17,000 (4.4%) were called active. Another 8% or so got no clear call; they are omitted. The call rests on the fitted dose curve; in most records, active means well fitted inhibition curve with a large enough effect; inconclusive means small, poorly fitted or top-dose-only effect; inactive means no such curve, though single readings can be large or run the other way. What follows is part of a selection rich in actives, with near analogues and random picks from the rest.
Outcome codes: y = active, n = inactive

molecule=Cc1ccc(-n2cnc3cc(C(=O)NCCC4=CCCCC4)ccc32)cc1Cl assigned_class=n
molecule=CCN(C(=O)CN1CCN(Cc2ccccc2)CC1)c1c(N)n(Cc2ccccc2)c(=O)[nH]c1=O assigned_class=y
molecule=CCOC(=O)COc1cc(OCC(=O)OCC)c2c(=O)cc(-c3ccccc3)oc2c1 assigned_class=n
molecule=CCCCN(CC)CCCNC(=O)Cn1ncc2c([nH]c3ccc(C)cc32)c1=O assigned_class=n
molecule=O=C(COC(=O)c1ccc(F)cc1F)Nc1ncccn1 assigned_class=y
molecule=COc1cc(NS(=O)(=O)c2ccc(NC(=S)NC(=O)c3ccccc3)cc2)nc(OC)n1 assigned_class=n
molecule=CCOC(=O)c1cccc(NC(=O)c2ccc(F)cc2F)c1 assigned_class=n
molecule=O=C(CN1CCCCCC1)NCCN1C(=O)S/C(=C\c2ccccc2Cl)C1=O assigned_class=n
molecule=N#Cc1ccccc1CN1C(=O)S/C(=C/c2cccn2-c2cccc(C(=O)O)c2)C1=O assigned_class=y
molecule=COC(=O)c1nc(NC(=O)c2ccccc2)n[nH]1 assigned_class=n
molecule=COc1c(O)cc2oc(-c3ccc(O)c(O)c3)cc(=O)c2c1O assigned_class=y
molecule=Nc1ccc2[nH]c(=S)sc2c1 assigned_class=y
molecule=CCOC(=O)c1ccc(NC(=O)Cn2c(=O)n(-c3ccc(C)cc3)c(=O)c3c2cnn3C)cc1 assigned_class=n
molecule=COc1ccc(-c2c(C)c3ccc(O)c(CN4CCN(C)CC4)c3oc2=O)cc1OC assigned_class=n
molecule="COc1ccc(CN2CCCC(C(=O)N3CCCCC3)C2)cc1 (stereo not given)" assigned_class=y

====

# TARGET OF ASSAY: Lysine-specific demethylase 4A (Homo sapiens) (UniProt O75164)
# TEST SUMMARY: qHTS Assay for Inhibitors of JMJD2A-Tudor Domain; further: nearly all actives have a fitted effect of over 50% in size; further: potency means the concentration at half of the fitted maximal effect
# EXPERIMENTAL CONTEXT: AlphaScreen JMJD2A-Tudor / H3K4me3 peptide binding; series mostly up to 114 µM
# Description: JMJD2A is a jumonji-domain-containing lysine demethylase that uses Fe(II) together with 2-OG to effect oxidative demethylation of histones. Methylation is one of many […] modification that affect epigenetic transcription. […] A quantitative high throughput AlphaScreen has been developed to identify small molecule inhibitors based on a protocol published by NCGC and SGC [4]. […] [2] Yasgar, et al. Compound Management for Quantitative High-Throughput Screening. […]
The campaign covered roughly 390,000 compounds. About 17,000 (4.4%) were called active. Another 8% or so got no clear call; they are omitted. The sample holds actives, similar compounds and a random draw of the others, so the mix is not that of the screen.
MEASURED ENDPOINT: Potency

compound=CCOC(=O)c1scc(-c2ccc(C)cc2)c1S(=O)(=O)Nc1cc(C)ccc1C measured_value=inactive
compound="CC1CCN(CC(O)COc2ccc(C(=O)c3ccccc3)cc2)CC1 (stereo not drawn)" measured_value=inactive
compound=CS(=O)(=O)C1=NN2C(=N)/C(=C\c3ccc(OCCOc4ccccc4)cc3)C(=O)N=C2S1 measured_value="56.2 µM (active)"
compound=COC(=O)c1ccc(NC(=O)CCc2c(C)nc3c(c(C)nn3-c3ccc(C)cc3)c2C)cc1 measured_value=inactive
compound=O=C(c1ccc(Cl)cc1)n1nc(-c2cccnc2)nc1NCc1ccc(F)cc1 measured_value=inactive
compound="CN(C)c1ccc(C(CNC(=O)c2ccc(F)cc2)c2c[nH]c3ccccc23)cc1 (stereo not drawn)" measured_value="25.1 µM (active)"
compound=COc1ccc(CN2CCC(=O)c3ccccc3S2(=O)=O)cc1 measured_value=inactive
compound="CCOc1ccccc1C(=O)NCC(c1ccc(N(C)C)cc1)N1CCCC1 (stereo not drawn)" measured_value=inactive
compound=O=S(=O)(NCCc1nnc2ccc(SCc3ccc(Cl)cc3Cl)nn12)c1ccccc1 measured_value=inactive
compound=CCOCCCNCc1ccc(OCc2ccc(F)cc2)c(OC)c1 measured_value=inactive
compound=CC(C)c1ccc2oc(-c3cc(NC(=O)c4cccs4)ccc3Cl)nc2c1 measured_value=inactive
compound="COc1cccc(-c2n[nH]c3c2C(c2cccc(O)c2)N(C)C3=O)c1 (stereo not drawn)" measured_value=inactive
compound="CCOc1cc(C2C(C(=O)OC)=C(C)NC3=C2C(=O)c2ccccc23)ccc1O (stereo not drawn)" measured_value="50.1 µM (active)"

====

# TARGET OF ASSAY: Lysine-specific demethylase 4A (Homo sapiens)
# TEST SUMMARY: qHTS Assay for Inhibitors of JMJD2A-Tudor Domain; further: nearly all actives have a fitted effect of over 50% in size
# EXPERIMENTAL CONTEXT: AlphaScreen JMJD2A-Tudor / H3K4me3 peptide binding; series mostly up to 114 µM
# From the text: JMJD2A is a jumonji-domain-containing lysine demethylase that uses Fe(II) together with 2-OG to effect oxidative demethylation of histones. Methylation is one of many […] modification that affect epigenetic transcription. […] A quantitative high throughput AlphaScreen has been developed to identify small molecule inhibitors based on a protocol published by NCGC and SGC [4]. […] [2] Yasgar, et al. Compound Management for Quantitative High-Throughput Screening. […]
About 17,000 (4.4%) of roughly 390,000 compounds were called active. Inconclusive results (about 8%) are left out. Calls follow the shape of the dose curve; as a rule, active = well fitted inhibition curve with a large enough effect; inconclusive = small, poorly fitted or top-dose-only effect; inactive = no such curve, though single readings can be large or run the other way. Shown is part of a subset that was picked to be rich in actives.
Outcome codes: active, inactive

compound=O=C1C=CC(=O)N1c1ccc(N2CCCCC2)cc1 target_of_assay="Lysine-specific demethylase 4A (Homo sapiens)" assigned_class=active
compound=COc1ccc(-c2cc(C(=O)N3CCN(c4ccc(F)cc4)CC3)no2)cc1 target_of_assay="Lysine-specific demethylase 4A (Homo sapiens)" assigned_class=inactive
compound=CCOc1ccc(OCC)c(Nc2nc3ccccc3n3nnnc23)c1 target_of_assay="Lysine-specific demethylase 4A (Homo sapiens)" assigned_class=inactive
compound=O=c1cc(COc2cccc(C(F)(F)F)c2)nc2sc3c(n12)CCCC3 target_of_assay="Lysine-specific demethylase 4A (Homo sapiens)" assigned_class=inactive
compound="O=C(C1CC(=O)N(C2CCCCC2)C1)N1CCN(c2ccccc2)CC1 (stereo not given)" target_of_assay="Lysine-specific demethylase 4A (Homo sapiens)" assigned_class=inactive

====

# TARGET OF ASSAY: Lysine-specific demethylase 4A (Homo sapiens) (UniProt O75164)
# TEST SUMMARY: qHTS Assay for Inhibitors of JMJD2A-Tudor Domain; further: nearly all actives have a fitted effect of over 50% in size
# EXPERIMENTAL CONTEXT: AlphaScreen JMJD2A-Tudor / H3K4me3 peptide binding; series mostly up to 114 µM
About 17,000 (4.4%) of roughly 390,000 compounds were called active. Another 8% or so got no clear call; they are omitted. The full list was thinned out, with actives kept by preference.
MEASURED ENDPOINT: outcome

mol=CN1CCN(c2ccc(S(=O)(=O)N3CCOCC3)cc2NC(=O)CCc2ccccc2)CC1 measured_value=inactive
mol=Cc1ccc(C(=O)Nc2ccc(OCc3cc(=O)n4c5c(sc4n3)CCCC5)cc2)cc1 measured_value=inactive
mol=O=C(COC(=O)Cc1ccc(F)cc1)Nc1cc(S(=O)(=O)N2CCOCC2)ccc1N1CCCC1 measured_value=inactive

====

# TARGET OF ASSAY: Lysine-specific demethylase 4A (Homo sapiens)
# TEST SUMMARY: qHTS Assay for Inhibitors of JMJD2A-Tudor Domain; further: nearly all actives have a fitted effect of over 50% in size
# EXPERIMENTAL CONTEXT: AlphaScreen JMJD2A-Tudor / H3K4me3 peptide binding; series mostly up to 114 µM
Among all 390,000 compounds or so, about 17,000 (4.4%) were called active. Roughly 8% stayed inconclusive and do not appear here. The call rests on the fitted dose curve; in most records, active means well fitted inhibition curve with a large enough effect; inconclusive means small, poorly fitted or top-dose-only effect; inactive means no such curve, though single readings can be large or run the other way. The sample as a whole holds a higher share of actives than the screen did.
Outcome codes: Y for active, N for inactive

compound=COc1ccc(OC)c(NC(=O)CN2CCCN(Cc3cc(C)ccc3C)S2(=O)=O)c1 assigned_class=N
compound=O=S(=O)(Nc1cc(Cl)ccc1N1CCOCC1)c1ccccc1Cl assigned_class=N
compound=CCc1c(C)sc(NC(=O)c2cccs2)c1C(N)=O assigned_class=Y
compound=Cc1ccccc1CSc1nc(-c2ccccc2)nc2c1Cc1c(CO)cnc(C)c1O2 assigned_class=N
compound=Cc1oc2c(c1C(=O)N1CCOCC1)C(=O)c1ccccc1C2=O assigned_class=N
compound=Cc1ccc2c(c1)-c1c(cnn1CC(=O)Nc1ccccc1C#N)CO2 assigned_class=N
compound=COc1ccccc1C(=O)OCc1cc(=O)n2nc(-c3cccs3)sc2n1 assigned_class=N
compound="COc1ccc(C2C(=O)N(C3CCCCC3)CC(=O)N2Cc2ccccc2Cl)cc1OC (stereo unspecified)" assigned_class=N
compound=O=C(COc1ccc(Cl)cc1)Nc1ccccc1OCc1cc(=O)n2ccccc2n1 assigned_class=N
compound=O=S(=O)(c1cccs1)N1CCN(Cc2ccccc2)CC1 assigned_class=N
compound=CCc1c(C)nc(N2CCN(Cc3ccccc3)CC2)[nH]c1=O assigned_class=N
compound="CCOC(=O)C(Sc1ncc(C#N)c(N)n1)C(C)C (stereo unspecified)" assigned_class=Y
compound=COCCCNCCOCCOc1ccc(Cl)cc1Br assigned_class=Y
compound=CCOc1ccc(CNC(=O)CCc2c(C)nn(-c3ccc(N4CCCCC4)nn3)c2C)cc1 assigned_class=N
compound=Cc1ccccc1CNC(=O)c1ccc(NC(=O)N2CCCCc3ccccc32)cc1 assigned_class=N
compound=COc1ccc(CNc2nc(-c3ccc(Cl)cc3)nn2C(=O)c2ccccc2)cc1 assigned_class=N
